Give measured pIC50 for each item. Keep answers brief.
- Test system: CCRF-CEM human T-cell acute lymphoblastic leukemia cell line
- test: XTT cytotoxicity (cell growth inhibition), CCRF-CEM
- assay_conditions: Homo sapiens, CCRF-CEM, read-out: IC50 (mean ± of determinations, in parentheses), Table 5
Where a name gives a salt, the structure may show the parent alone.
Numbers only, as −log10 of the molar value.

[
  {
    "molecule": "CC[C@]1(O)C[C@@H]2CN(CCc3c([nH]c4ccccc34)[C@@](C(=O)OC)(c3cc4c(cc3OC)N(C)[C@H]3[C@@](O)(C(=O)OC)[C@H](OC(C)=O)[C@]5(CC)C=CCN6CC[C@]43[C@@H]65)C2)C1 [Vinblastine, Vinblastine sulfate]",
    "measured_value": 9.20
  }
]

Now for a further molecule.
**Query** What measured pIC50 goes with COc1cc([C@@H]2c3cc4c(cc3[C@@H](O[C@@H]3O[C@@H]5CO[C@@H](C)O[C@H]5[C@H](O)[C@H]3O)[C@H]3COC(=O)[C@H]23)OCO4)cc(OC)c1O [Etoposide, etoposide] ?
**Result** 6.53
